molecular target: Sphingosine 1-phosphate receptor 1 (Homo sapiens); assay: Agonist activity at human S1P1 receptor expressed in human U2OS cells co-expressing eGFP assessed as receptor internalization after 1 hr
Sequence (P21453 whole entry): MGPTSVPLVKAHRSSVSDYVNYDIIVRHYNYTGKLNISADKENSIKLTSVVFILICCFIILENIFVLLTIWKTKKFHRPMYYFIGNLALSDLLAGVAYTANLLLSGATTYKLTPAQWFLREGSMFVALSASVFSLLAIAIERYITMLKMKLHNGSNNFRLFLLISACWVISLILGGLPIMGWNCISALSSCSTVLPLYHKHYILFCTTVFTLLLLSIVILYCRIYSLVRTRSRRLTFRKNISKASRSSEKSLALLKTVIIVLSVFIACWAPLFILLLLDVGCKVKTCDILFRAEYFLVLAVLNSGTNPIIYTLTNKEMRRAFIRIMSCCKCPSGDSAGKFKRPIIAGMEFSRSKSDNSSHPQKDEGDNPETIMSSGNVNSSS
So basically, if EC50 comes in under 0.04 µM it's criterion met, and if it's 0.04 µM or more it's criterion not met.

Request: Please state whether EC50 is below 0.04 µM for Cc1cccc(Cc2ccc3sc(-c4ccc(CN5CC(C(=O)O)C5)cc4F)nc3c2)c1
Result: criterion not met

Request: Please state whether EC50 is below 0.04 µM for O=C(O)C1CN(Cc2ccc(-c3nc4cc(Cc5ccccc5Cl)ccc4s3)c(F)c2)C1
Result: criterion not met

Request: Please state whether EC50 is below 0.04 µM for Cc1ccc(Cc2ccc3sc(-c4ccc(CN5CC(C(=O)O)C5)cc4F)nc3c2)cc1
Result: criterion not met

Request: Please state whether EC50 is below 0.04 µM for O=C(O)C1CN(Cc2ccc(-c3nc4cc(Cc5ccc(F)cc5)ccc4s3)c(F)c2)C1
Result: criterion met

Request: Please state whether EC50 is below 0.04 µM for O=C(O)C1CN(Cc2ccc(-c3nc4cc(Cc5ccccc5)ccc4s3)c(F)c2)C1
Result: criterion not met

Request: Please state whether EC50 is below 0.04 µM for O=C(O)C1CN(Cc2ccc(-c3cn4cc(Cc5ccccc5)ccc4n3)c(F)c2)C1
Result: criterion not met

Request: Please state whether EC50 is below 0.04 µM for O=C(O)C1CN(Cc2ccc(-n3cc4ccc(Cc5ccccc5)cc4n3)c(F)c2)C1
Result: criterion not met

Request: Please state whether EC50 is below 0.04 µM for O=C(O)C1CN(Cc2ccc(-c3nc4cc(Cc5ccc(F)c(F)c5)ccc4s3)c(F)c2)C1
Result: criterion met

Request: Please state whether EC50 is below 0.04 µM for O=C(O)C1CN(Cc2ccc(-c3nc4cc(Cc5cccc(F)c5)ccc4s3)c(F)c2)C1
Result: criterion met

====

assay: AUC (0 to 24 hrs) in Sprague-Dawley rat at 100 mg/kg, po qd for 4 days; type: ADME, organism-based; design: time < 24 hr, dose 100 mg/kg, route oral; settings: plasma
quantity.name: AUC at 24 h (µg·h/mL)
Provide the reading as a plain figure in µg·h/mL.

Request: Report measured AUC at 24 h; entry is O=C(O)C1CN(Cc2ccc(-c3nc4cc(Cc5ccccc5F)ccc4s3)c(F)c2)C1
Result: 987

====

assay: Fraction unbound in rat plasma at 5 ug/ml by ultracentrifugation analysis; assay type: ADME, cell-free
Provide the reported fraction unbound at 5 ug/ml of each item.
# output: bare number, no unit

Request: Report measured fraction unbound at 5 ug/ml; entry is O=C(O)C1CN(Cc2ccc(-c3nc4cc(Cc5ccccc5F)ccc4s3)c(F)c2)C1
Result: 0.021

Request: Report measured fraction unbound at 5 ug/ml; entry is O=C(O)C1CN(Cc2ccc(-c3cc4cc(Cc5ccccc5)ccc4o3)c(F)c2)C1
Result: 0.015

====

assay: Half life in cynomolgus monkey at 4 mg/kg, iv and 10 mg/kg, po; format: ADME, organism-based, Macaca fascicularis; conditions: in vivo
quantity.name: half-life (h)
Provide the reading as a plain figure in h.

Request: Report measured half-life; entry is O=C(O)C1CN(Cc2ccc(-c3nc4cc(Cc5ccccc5F)ccc4s3)c(F)c2)C1
Result: 35.2
